- Test system: Enterococcus faecium
- TEST: Antibacterial activity against vancomycin-resistant Enterococcus faecium incubated for 6 to 8 hrs by MABA
- Format: functional
- SETUP CONDITIONS: time 6-8 hrs
TEST READOUT: MIC (µg/mL)
Give bare numbers, in µg/mL.

The cases that follow already have their MIC on record.
- SAMPLE SMILES: "COc1cc2c(c(O)c1Cl)C(=O)c1c(cc3c(Cl)c(OC)cc(-c4c(O)cc(O)c(Cl)c4C)c3c1O)C2(C)C"
  REPORTED MEASUREMENT: 5
- SAMPLE SMILES: "COc1cc2c(c(O)c1Cl)C(=O)c1c(cc3c(Cl)c(O)cc(-c4c(C)c(Cl)c(OC)c(Cl)c4O)c3c1O)C2(C)C"
  REPORTED MEASUREMENT: 5
- SAMPLE SMILES: "COc1c(Cl)c(C)c(-c2cc(O)cc3cc4c(c(O)c23)C(=O)c2c(cc(O)c(Cl)c2O)C4(C)C)c(O)c1Cl"
  REPORTED MEASUREMENT: 1.25
- SAMPLE SMILES: "COc1cc(C)c(-c2cc(O)c(Cl)c3cc4c(c(O)c23)C(=O)c2c(cc(O)c(Cl)c2O)C4(C)C)c(O)c1"
  REPORTED MEASUREMENT: 5

In: Please give measured MIC of the following entry: COc1cc2c(c(O)c1Cl)C(=O)c1c(cc3cc(O)cc(-c4c(C)c(OC)c(OC)c(Cl)c4O)c3c1O)C2(C)C
Out: 5

---

- Tested on: Staphylococcus aureus
- TEST: Antibacterial activity against methicillin-resistant Staphylococcus aureus ATCC 6548 incubated for 6 to 8 hrs by MABA
- Assay type: functional
- SETUP CONDITIONS: time 6-8 hrs
TEST READOUT: MIC (mg/L)
Numbers only, in mg/L.

Examples with their reported MIC follow.
- SAMPLE SMILES: "COc1cc2c(c(O)c1Cl)C(=O)c1c(cc3c(Cl)c(O)cc(-c4c(C)c(Cl)c(OC)c(Cl)c4O)c3c1O)C2(C)C"
  REPORTED MEASUREMENT: 2.5
- SAMPLE SMILES: "COc1cc2c(c(O)c1Cl)C(=O)c1c(cc3cc(O)cc(-c4c(C)c(OC)c(OC)c(Cl)c4O)c3c1O)C2(C)C"
  REPORTED MEASUREMENT: 1.25
- SAMPLE SMILES: "COc1cc(C)c(-c2cc(O)cc3cc4c(c(O)c23)C(=O)c2c(cc(O)c(Cl)c2O)C4(C)C)c(O)c1"
  REPORTED MEASUREMENT: 5
- SAMPLE SMILES: "COc1cc(C)c(-c2cc(OC)cc3cc4c(c(O)c23)C(=O)c2c(O)cc(O)cc2C4(C)C)c(O)c1"
  REPORTED MEASUREMENT: 1.25
- SAMPLE SMILES: "COc1cc(C)c(-c2cc(OC)c(Cl)c3cc4c(c(O)c23)C(=O)c2c(cc(O)c(Cl)c2O)C4(C)C)c(O)c1"
  REPORTED MEASUREMENT: 1.25

Record MIC per entry; entries follow.
1. COc1cc(C)c(-c2cc(OC)cc3cc4c(c(O)c23)C(=O)c2c(cc(O)c(Cl)c2O)C4(C)C)c(O)c1
2. COc1c(Cl)c(C)c(-c2cc(O)cc3cc4c(c(O)c23)C(=O)c2c(cc(O)c(Cl)c2O)C4(C)C)c(O)c1Cl
3. COc1cc2c(c(O)c1Cl)C(=O)c1c(cc3c(Cl)c(OC)cc(-c4c(O)cc(O)c(Cl)c4C)c3c1O)C2(C)C
4. COc1cc(-c2c(O)cc(O)c(Cl)c2C)c2c(O)c3c(cc2c1)C(C)(C)c1cc(OC)c(Cl)c(O)c1C3=O
5. COc1cc(C)c(-c2cc(O)cc3cc4c(c(O)c23)C(=O)c2c(cc(OC)c(Cl)c2OC)C4(C)C)c(O)c1
6. COc1cc(C)c(-c2cc(O)c(Cl)c3cc4c(c(O)c23)C(=O)c2c(cc(O)c(Cl)c2O)C4(C)C)c(O)c1

Out:
[2.5, 1.25, 2.5, 1.25, 2.5, 1.25]

---

- System: Enterococcus faecium
- TEST: Antibacterial activity against vancomycin-sensitive Enterococcus faecium incubated for 6 to 8 hrs by MABA
- Format: functional
- SETUP CONDITIONS: time 6-8 hrs
For each of the compounds below, state its MIC.
One number for each entry, in µg/mL.

Reference set (6 entries):
- COMPOUND: "COc1cc(C)c(-c2cc(O)c(Cl)c3cc4c(c(O)c23)C(=O)c2c(cc(O)c(Cl)c2O)C4(C)C)c(O)c1"
  STUDY TARGET: "Enterococcus faecium"
  OUTPUT UNIT: "µg/mL"
  MIC: 2.5
- COMPOUND: "COc1cc2c(c(O)c1Cl)C(=O)c1c(cc3cc(O)cc(-c4c(C)c(OC)c(OC)c(Cl)c4O)c3c1O)C2(C)C"
  STUDY TARGET: "Enterococcus faecium"
  OUTPUT UNIT: "µg/mL"
  MIC: 2.5
- COMPOUND: "COc1cc2c(c(O)c1Cl)C(=O)c1c(cc3c(Cl)c(OC)cc(-c4c(O)cc(O)c(Cl)c4C)c3c1O)C2(C)C"
  STUDY TARGET: "Enterococcus faecium"
  OUTPUT UNIT: "µg/mL"
  MIC: 1.25
- COMPOUND: "COc1cc(C)c(-c2cc(OC)c(Cl)c3cc4c(c(O)c23)C(=O)c2c(cc(O)c(Cl)c2O)C4(C)C)c(O)c1"
  STUDY TARGET: "Enterococcus faecium"
  OUTPUT UNIT: "µg/mL"
  MIC: 2.5
- COMPOUND: "COc1c(Cl)c(C)c(-c2cc(O)cc3cc4c(c(O)c23)C(=O)c2c(cc(O)c(Cl)c2O)C4(C)C)c(O)c1Cl"
  STUDY TARGET: "Enterococcus faecium"
  OUTPUT UNIT: "µg/mL"
  MIC: 1.25
- COMPOUND: "CN[C@H](CC(C)C)C(=O)N[C@H]1C(=O)N[C@@H](CC(N)=O)C(=O)N[C@H]2C(=O)N[C@H]3C(=O)N[C@H](C(=O)N[C@H](C(=O)O)c4cc(O)cc(O)c4-c4cc3ccc4O)[C@H](O)c3ccc(c(Cl)c3)Oc3cc2cc(c3O[C@@H]2O[C@H](CO)[C@@H](O)[C@H](O)[C@H]2O[C@H]2C[C@](C)(N)[C@H](O)[C@H](C)O2)Oc2ccc(cc2Cl)[C@H]1O [VANCOMYCIN]"
  STUDY TARGET: "Enterococcus faecium"
  OUTPUT UNIT: "µg/mL"
  MIC: 1.25

Quick request: MIC for each listed item, please.
1. COc1cc(C)c(-c2cc(O)cc3cc4c(c(O)c23)C(=O)c2c(cc(O)c(Cl)c2O)C4(C)C)c(O)c1
2. COc1cc2c(c(O)c1Cl)C(=O)c1c(cc3c(Cl)c(O)cc(-c4c(C)c(Cl)c(OC)c(Cl)c4O)c3c1O)C2(C)C

Out:
1. 2.5
2. 2.5

---

- System: Staphylococcus aureus
- TEST: Antibacterial activity against methicillin-resistant Staphylococcus aureus ATCC 6548 incubated for 6 to 8 hrs by MABA
- Format: functional
- SETUP CONDITIONS: time 6-8 hrs
TEST READOUT: MIC

The cases that follow already have their MIC on record.
- SAMPLE SMILES: "COc1cc(-c2c(O)cc(OC)c(Cl)c2C)c2c(O)c3c(cc2c1)C(C)(C)c1cc(OC)c(Cl)c(O)c1C3=O"
  MIC: "> 10 µg/mL"
- SAMPLE SMILES: "COC1=CC(=O)C(c2cc(OC)cc3cc4c(c(O)c23)C(=O)c2c(cc(OC)c(Cl)c2O)C4(C)C)=C(C)C1=O"
  MIC: "> 10 µg/mL"
- SAMPLE SMILES: "COc1cc(C)c(-c2nc(C)cc3cc4c(c(O)c23)C(=O)c2c(OC)cc(OC)cc2C4(C)C)c(OC)c1"
  MIC: "> 10 µg/mL"
- SAMPLE SMILES: "COc1cc(C)c(C(=O)c2c(CC(C)=O)cc3c(c2O)C(=O)c2c(OC)cc(OC)cc2C3(C)C)c(OC)c1"
  MIC: "> 10 µg/mL"

Query compound follows.
In: # return recorded MIC for entry CN[C@H](CC(C)C)C(=O)N[C@H]1C(=O)N[C@@H](CC(N)=O)C(=O)N[C@H]2C(=O)N[C@H]3C(=O)N[C@H](C(=O)N[C@H](C(=O)O)c4cc(O)cc(O)c4-c4cc3ccc4O)[C@H](O)c3ccc(c(Cl)c3)Oc3cc2cc(c3O[C@@H]2O[C@H](CO)[C@@H](O)[C@H](O)[C@H]2O[C@H]2C[C@](C)(N)[C@H](O)[C@H](C)O2)Oc2ccc(cc2Cl)[C@H]1O
Out: 0.63 µg/mL
